biological target: UniProtKB O75908; assay: [3H]oleate incorporation into cholesteryl oleate in CHO-ACAT2 cells
Sequence (O75908 whole entry): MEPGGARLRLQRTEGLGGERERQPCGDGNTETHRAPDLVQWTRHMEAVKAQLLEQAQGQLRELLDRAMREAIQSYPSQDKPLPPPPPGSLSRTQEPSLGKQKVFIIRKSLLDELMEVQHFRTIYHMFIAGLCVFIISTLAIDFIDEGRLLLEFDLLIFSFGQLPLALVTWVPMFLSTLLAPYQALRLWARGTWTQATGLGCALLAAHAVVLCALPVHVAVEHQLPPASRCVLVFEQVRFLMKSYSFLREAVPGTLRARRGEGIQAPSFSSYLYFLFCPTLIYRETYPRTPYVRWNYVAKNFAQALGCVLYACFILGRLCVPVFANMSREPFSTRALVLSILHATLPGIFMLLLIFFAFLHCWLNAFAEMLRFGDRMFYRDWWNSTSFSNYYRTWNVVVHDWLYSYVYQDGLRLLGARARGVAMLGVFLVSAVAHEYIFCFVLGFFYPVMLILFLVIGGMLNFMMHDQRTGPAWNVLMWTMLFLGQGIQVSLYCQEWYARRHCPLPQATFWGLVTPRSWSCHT
Measurement Type: IC50 (nM)

[
  {
    "Smiles": "Cc1c(C(=O)NN2CCCCC2)nn(-c2ccc(Cl)cc2Cl)c1-c1ccc(Cl)cc1",
    "Assay System": "UniProtKB O75908",
    "Recorded Measurement": 2200
  }
]

Entry source: paper PMC2918681
